Reference source: patent US20160045687A1

test: Example #3: sumatriptan PK in nitroglycerin (GTN)-induced migraine vs healthy subjects; conditions: human, in vivo, other: intranasal, Breath Powered device, 7.5 mg
attribute measured: Cmax

Input line: Please indicate Cmax recorded for `CNS(=O)(=O)Cc1ccc2[nH]cc(CCN(C)C)c2c1`
Output line: 0.011 µg/mL

* * *

assay: Example #3: sumatriptan PK in nitroglycerin (GTN)-induced migraine vs healthy subjects; conditions: human, in vivo, other: intranasal powder; 7.5 mg delivered to the side of the migraine during a GTN attack in migraineurs, Breath Powered device
attribute measured: bioavailability (%)
Numbers only, in %.

Input line: Please indicate bioavailability recorded for CNS(=O)(=O)Cc1ccc2[nH]cc(CCN(C)C)c2c1 [sumatriptan]
Output line: 27
